Give Kd for every item shown.
Target entity: natural Fel d1 (cat (Felis domesticus)) (UniProt P30438)
Test method notes: SPR, mAb captured, nFel d1 injected, 25 C
Give bare numbers, in nM.

Sample answers from the record:
INSERT INTO results (binder, value_measured) VALUES
  ('H2M1236N (antibody, mouse IgG2, V domains shown) VH: QVQLQESGPGLVKPSETLSLTCTVSGGSISNYYWSWIRQPPGKGLEWIGYIYYSGRTNYNPSLKSRVTISVDTSKNQFSLKLRSVTAADTAVYYCARHRITRTADSFDYWGQGTLVTVSS VL: DIQMTQSPSSLSASVGDRVTITCQASQDITNYLNWYQQKPGKAPKLLIYDASNLETGVPSRFSGSGSGTDFTFTISSLQPEDVATFYCHQYGDLPYTFGQGTKLEIK', 4.55),
  ('H4H2592B (antibody, human IgG4, V domains shown) VH: QVQLVESGGGLVKPGGSLRLSCAASGFTFSDYYMNWIRQAPGKGLEWISYISSSGSTTYYADSVKGRFTISRDNAKNSLFLQMNSLRGEDTAVYYCARDGRYNTVAGDYWGQGTTVTVSS VL: EIVMTQSPDFQSVAPKEKVTITCRASQNIGGSLHWYQQKPDQSPKLLIKYASQSFSGVPSRFSGSGSGTDFTLTINSLEAEDAATYYCLQSYTLRTFGQGTKVEIKR', 0.641),
  ('H4H2797P (antibody, human IgG4, V domains shown) VH: QVQLVESGGGVVLPGRSLRLSCAASGFTFSSYLMYWVRQAPGKGLEWVAVIWYDGSNKFYGDSVKGRFTISRDNSKNTLYLQMNSLRAEDTAVYYCARDNGNSGYEDSWNAFDIWGQGTMVTVSS VL: DIQMTQSPSSLSASVGDRVTITCRASQDIYNYLAWFQQKPGKAPKSLIYAASSLQTGVPSQFSGSGSGTDFTLTISSLQPEDFATYYCQQYNNYPFTFGPGTKVDIK', 35.4);

Which Kd is reported for this binder? H1M1241N (antibody, V domains shown) VH: EVQLVESGGGLVKPGGSLRLSCAASGFTFSSYSMNWVRQAPGKGLEWVSSISSRSSYIYYADSVKGRFTISRDNAKNSLYLQMNSLRAEDTAVYYCARDHIVVVPGASYYYYGMDVWGQGTTVTVSS VL: DIQMTQSPSSLSASVGDRVTITCRASQGIRNDLGWYQQKPGKAPKRLISAASSLQSGVPSRFSGSGSGTEFTLTISSLQPEDFATYYCLQHNSYPLTFGGGTKVEIK
3.63
